- Tested on: PA-1
- Method description: Primary qHTS to identify gynecologic anti-cancer compounds using libraries of approved drugs and bioactive compounds (AID 1345084); further: on the % scale 0 is the no-effect control and ±100 the full control effect; nearly all actives have a fitted effect of over 55% in size
- Study conditions: Gynecologic cancer cell panel viability, ATPlite luminescence, 48 h; series mostly up to 57.5 µM
Records with an inconclusive call do not appear. Activity calls are given as the source filed them. The call rests on the fitted dose curve; in most records, active means well fitted cell-killing curve with a large enough effect; inconclusive means small, poorly fitted or top-dose-only effect, or effect the other way; inactive means flat fitted curve, though single readings scatter.
Quantity kind: activity change, negative = cytotoxicity

Known activity change, negative = cytotoxicity results, listed for orientation:
Molecule: CC(/C=C/C=C(\C)C(=O)O[C@@H]1O[C@H](CO[C@@H]2O[C@H](CO)[C@@H](O)[C@H](O)[C@H]2O)[C@@H](O)[C@H](O)[C@H]1O)=C\C=C\C=C(C)\C=C\C=C(/C)C(=O)O[C@@H]1C[C@](O)(C(=O)O)C[C@@H](O)[C@H]1OC(=O)/C=C/c1ccc(O)c(O)c1
System under test: PA-1
activity change, negative = cytotoxicity: -12.7% [at 11.6 µM] (inactive)
--
Molecule: C[C@]1(OC(=O)/C=C/c2ccc(O)cc2)C[C@@H](O)[C@]2(O)C=CO[C@@H](O[C@@H]3O[C@H](CO)[C@@H](O)[C@H](O)[C@H]3O)C12 (some centres not stated)
System under test: PA-1
activity change, negative = cytotoxicity: inactive
--
Molecule: O=C(Cn1c2ccccc2c2nc3n(c(=O)c21)CCS3)N1CCCC1
System under test: PA-1
activity change, negative = cytotoxicity: inactive
--
Molecule: C=C(C)[C@@]1(O)C[C@@]2(C)C(=CC1=O)CC[C@@H](O)[C@@H]2C
System under test: PA-1
activity change, negative = cytotoxicity: inactive
--
Molecule: C=C(C)[C@@H]1CC[C@]2(C(=O)O)CC[C@]3(C)C(CCC4[C@]5(C)C(CC[C@]43C)C(C)(C)[C@@H](O)[C@@H]5C(=O)O)C12 (some centres not stated)
System under test: PA-1
activity change, negative = cytotoxicity: inactive
--
Molecule: CC1=C2C[C@@]3(C)[C@@H](CCC[C@@H]3C)C[C@@]2(O)OC1=O
System under test: PA-1
activity change, negative = cytotoxicity: inactive
--
Molecule: CC(=O)O[C@H]1[C@H](OC(=O)C(C)C)[C@]2(C)OC3(CC[C@]2(C)[C@H]2CCC[C@]4(CO4)[C@]12C)COC(=O)C3 (some centres not stated)
System under test: PA-1
activity change, negative = cytotoxicity: inactive
--
Molecule: CC1=C(CCC(C)O[C@@H]2O[C@H](CO)[C@@H](O)[C@H](O)[C@H]2O)C(C)(C)CC(O)C1 (some centres not stated)
System under test: PA-1
activity change, negative = cytotoxicity: inactive

For the molecule CC(C)CC(=O)O[C@@H]1O[C@H](CO)[C@@H](O[C@H]2O[C@H](C)[C@@H](N[C@H]3C=C(CO)[C@@H](O[C@H]4O[C@H](CO)[C@@H](O[C@H]5O[C@H](CO)[C@@H](O[C@H]6O[C@H](CO)[C@@H](O)[C@H](O)[C@H]6O)[C@H](O)[C@H]5O)[C@H](O)[C@H]4O)[C@H](O)[C@H]3O)[C@H](O)[C@H]2O)[C@H](O)[C@H]1O , what activity change, negative = cytotoxicity is on record?
-1.75% [at 11.6 µM] (inactive)

Which activity change, negative = cytotoxicity reading was recorded for the molecule C[C@@H]1CCC2C(C)(C)[C@H](O)[C@H](O)C[C@]2(C)[C@@]12Cc1c(O)cc3c(c1O2)CN(CCCC(=O)O)C3=O (some centres not stated) ?
inactive

Could you tell me which activity change, negative = cytotoxicity is on file for C=C1C(O)C(OC(=O)c2ccccc2)C2C(C)(C(=O)O)CCCC2(C)C1CC/C(C)=C\CO (configuration not stated) ?
inactive

Can you share its activity change, negative = cytotoxicity? I mean this molecule: CC[C@H]1OC(=O)[C@H](C)[C@@H](O[C@H]2C[C@@](C)(OC)[C@@H](O)[C@H](C)O2)C(C)[C@@H](O[C@@H]2O[C@H](C)C[C@H](N(C)C)[C@H]2O)[C@](C)(O)C[C@@H](C)CN(C)[C@H](C)[C@@H](O)[C@]1(C)O (some centres not stated)
inactive

* * *

- Tested on: Tov112D
- Method description: Primary qHTS to identify gynecologic anti-cancer compounds using libraries of approved drugs and bioactive compounds (AID 1345084); further: on the % scale 0 is the no-effect control and ±100 the full control effect; nearly all actives have a fitted effect of over 55% in size
- Study conditions: Gynecologic cancer cell panel viability, ATPlite luminescence, 48 h; series mostly up to 57.5 µM
- Description: National Center for Advancing Translational Sciences [NCATS] Assay Overview: Chemotherapeutic drug responses vary from cancer to cancer and from patient to patient. […] ATPlite is a luminescence based assay reliant on the conversion of a luciferase substrate to light in the presence of ATP. As a cytotoxic compound will suppress growth and decrease the number of cells, the concentration of ATP will decrease, and less light signal will be detected in the well. […]
Records with an inconclusive call do not appear. Active and inactive are the calls of the source. The call rests on the fitted dose curve; in most records, active means well fitted cell-killing curve with a large enough effect; inconclusive means small, poorly fitted or top-dose-only effect, or effect the other way; inactive means flat fitted curve, though single readings scatter.
Quantity kind: activity change, negative = cytotoxicity

Molecule: COc1ccc2c(c1)C=C1Cn3c-2c(C2CCCCC2)c2ccc(cc23)C(=O)NS(=O)(=O)N(C)CCOCCN(C)C1=O
Measured: inactive

Molecule: C[C@H](O)C(O)(C(=O)OCc1ccccc1NC(=O)CCC(N)C(=O)O)[C@H](C)O (stereo partly specified)
Measured: inactive

Molecule: CC1(C)CC[C@]2(C(=O)O[C@@H]3O[C@H](CO)[C@@H](O)[C@H](O)[C@H]3O)CC[C@]3(C)C(=CCC4[C@@]5(C)CC[C@H](O[C@@H]6O[C@H](C(=O)O)[C@@H](O[C@@H]7O[C@H](CO)[C@@H](O)[C@H](O)[C@H]7O)[C@H](O)[C@H]6O)C(C)(C)C5CC[C@]43C)C2C1 (stereo partly specified)
Measured: 2.05% [at 11.6 µM] (inactive)

Molecule: CCC12CCCN3CCc4c(n(c5ccccc45)C(O)C1)C32 (stereo unspecified)
Measured: inactive

Molecule: CC1OC(OC2C(OC3C(O[C@H]4CC[C@@]5(C)C(CC[C@]6(C)C5CC=C5C7CC(C)(C)CC(O)[C@]7(C)CC[C@]56C)C4(C)C)OC(C(=O)O)C(O)C3O)OCC(O)C2O)C(O)C(O)C1O (stereo partly specified)
Measured: 1.05% [at 11.6 µM] (inactive)

// next item, activity change, negative = cytotoxicity requested
Param readout= activity change, negative = cytotoxicity; system= Tov112D; entry= CC1(C)CC=C(C#Cc2ccccc2)c2cc(/C=C/c3ccc(C(=O)O)cc3)ccc21 ; returns value.
inactive

* * *

- System: KB-3-1
- Method description: Cytotoxic Profiling of Annotated Libraries Using Quantitative High-Throughput Screening (AID 1296008); further: nearly all actives have a fitted effect of over 60% in size
- Study conditions: Five cell lines viability, CellTiter-Glo ATP luminescence, 48-72 h
Records with an inconclusive call do not appear. Activity calls are given as the source filed them. The call rests on the fitted dose curve; in most records, active means well fitted inhibition curve with a large enough effect; inconclusive means small, poorly fitted or top-dose-only effect; inactive means flat fitted curve, though single readings scatter. Where a SMILES comes first, the peptide text is derived from it. The star is where a group is joined. βNA = c1ccc2cc(N*)ccc2c1; Cbz = O=C(OCc1ccccc1)*
Quantity kind: outcome

Study these solved cases before continuing.
Compound: C/C(=C\C(=O)C[C@@]12C(=O)O[C@]3(C)CC[C@H]1C[C@H]23)C(N)=O
outcome: inactive

Compound: C[C@H]1CC[C@@]2(OC1)O[C@H]1CC3C4CC[C@H]5C[C@@H](O)CC[C@]5(C)C4CC(=O)[C@]3(C)[C@H]1[C@@H]2C (stereo partly specified)
outcome: inactive

Compound: CC(C)CC(NC(=O)OCc1ccccc1)C(=O)NC(CC(C)C)C(=O)NC(CCC(=O)O)C(=O)Nc1ccc2ccccc2c1 (stereo not drawn) (Cbz-Leu-Leu-Glu-βNA; configuration not given here)
outcome: inactive

Compound: CC1(C)[C@@H]2CC=C(CO[C@@H]3O[C@H](CO[C@@H]4OC[C@H](O)[C@H](O)[C@H]4O)[C@@H](O)[C@H](O)[C@H]3O)[C@H]1C2
outcome: inactive

Compound: CC(=O)O[C@@H]1[C@@H](O)[C@H](C)O[C@@H](O[C@H]2[C@@H]3C=CO[C@@H](O[C@@H]4O[C@H](CO)[C@@H](O)[C@H](O)[C@H]4OC(C)=O)[C@@H]3[C@@]3(CO)O[C@@H]23)[C@@H]1OC(=O)/C=C/c1ccc(O)cc1
outcome: inactive

May I ask what outcome has been recorded for C[C@@H]1O[C@@H](O[C@H]2[C@H](Oc3cc(O)c(C(=O)CCc4ccc(O)cc4)c(O)c3)O[C@H](CO)[C@@H](O)[C@@H]2O)[C@H](O)[C@H](O)[C@H]1O ?
inactive

* * *

- Tested on: HEK293
- Method description: Cytotoxic Profiling of Annotated Libraries Using Quantitative High-Throughput Screening (AID 1296008); further: nearly all actives have a fitted effect of over 60% in size; on max response: on the % scale 0 is the no-effect control and ±100 the full control effect
- Study conditions: Five cell lines viability, CellTiter-Glo ATP luminescence, 48-72 h; stronger effect = lower value
- Experimental: Cell-based phenotypic screening is a commonly used approach to discover biological pathways, novel drug targets, chemical probes and high-quality hit-to-lead molecules. […] A pintool (Kalypsys) was used to transfer 23 nL of compound solution to the 1536-well assay plates. […] Plates were left at room temperature for 10 min before imaging the ATP-coupled luminescence using a ViewLux microplate imager (PerkinElmer, Waltham, MA).
Inconclusive results are not listed.
Quantity kind: max response (%)
Numbers only here, please. The scale is %.

As a guide, the following entries are already answered.
Compound: CC1(C)COC(=O)[C@@H]1O[C@@H]1O[C@H](CO)[C@@H](O)[C@H](O)[C@H]1O
max response, %: 0.945

Compound: CC1=C(CO)C2(C)CCCC(C)(C)C2C(O)C1O (configuration not stated)
max response, %: -5.93

Name the recorded max response for C=C[C@@]1(C)CCC2=C([C@H]1OC(C)=O)[C@H](OC(C)=O)CC1[C@](C)(C(=O)OC)CC[C@H](OC(C)=O)[C@]21C (some centres not stated) .
0.95

Param item = CCC(C)/C=C(C)/C=C/C1=CC2=C(Cl)C(=O)C(C)(OC(C)=O)C(=O)C2=CN1C(CCC(=O)O)C(=O)O (configuration not stated) ; retrieve measured max response.
-1.69

What value of measured max response is listed for CC(=O)OC1C(O)C(C)(O)C(/C=C/C(=O)O)C2(C)CCCC(C)(C)C12 (configuration not stated) ?
0.298

What value of max response has been reported for the following compound? COc1cccc(C)c1C(=O)O[C@@H]1C[C@H](O[C@H]2[C@H](O)C[C@H](O[C@@H]3CCC[C@H]4[C@H]3C=C[C@@H]3CCCC/C=C/[C@H]5C=C(C(=O)O)[C@@H](C)C[C@@]56OC(=O)C(=C6O)OC(=O)[C@@]34C)O[C@@H]2C)O[C@H](C)[C@H]1O
-11.9

Can you share its max response? I mean this compound: CCC/C=C/C=C/C1CC(O)C(O)C(=O)C1CO (configuration not stated)
-5.36

Would you mind telling me what max response value was observed for CCN=C1N[C@@H]2[C@@H](O)[C@H](O)[C@@H](CO)O[C@@H]2S1 ?
-6.92

State the recorded max response for this entry: CCOc1nc2c(N)ncnc2n1CC
3.9

Fill blank: measured max response of the compound CNC(=O)c1ccc2c(c1)CCO[C@H]2CCN1CCN(c2ccc(C(N)=O)cc2)CC1 is ____.
3.1

Reported max response, compound CC1(C)CC[C@]2(C(=O)O[C@@H]3O[C@H](CO)[C@@H](O)[C@H](O)[C@H]3O)CC[C@]3(C)C(=CCC4[C@@]5(C)CC[C@H](O[C@@H]6O[C@H](C(=O)O)[C@@H](O)[C@H](O)[C@H]6OC6OC(CO)C(O)C(O)C6O)C(C)(C)C5CC[C@]43C)[C@@H]2C1 (some centres not stated) : ____
-12.1
